In this section, each of the compounds is paired with its reported Plate 3 (% conversion).
# Target desc: His6-AspH315–758 (human aspartate/asparagine-β-hydroxylase, AspH) (Homo sapiens, UniProt Q12797)
# Construct: N-Terminally His6-tagged human AspH315–758 (His6-AspH315–758) was produced in E. coli BL21 (DE3) cells; made in house; host or cells: E. coli BL21 (DE3), pET-28a(+) vector
# Sequence (Q12797 315-758): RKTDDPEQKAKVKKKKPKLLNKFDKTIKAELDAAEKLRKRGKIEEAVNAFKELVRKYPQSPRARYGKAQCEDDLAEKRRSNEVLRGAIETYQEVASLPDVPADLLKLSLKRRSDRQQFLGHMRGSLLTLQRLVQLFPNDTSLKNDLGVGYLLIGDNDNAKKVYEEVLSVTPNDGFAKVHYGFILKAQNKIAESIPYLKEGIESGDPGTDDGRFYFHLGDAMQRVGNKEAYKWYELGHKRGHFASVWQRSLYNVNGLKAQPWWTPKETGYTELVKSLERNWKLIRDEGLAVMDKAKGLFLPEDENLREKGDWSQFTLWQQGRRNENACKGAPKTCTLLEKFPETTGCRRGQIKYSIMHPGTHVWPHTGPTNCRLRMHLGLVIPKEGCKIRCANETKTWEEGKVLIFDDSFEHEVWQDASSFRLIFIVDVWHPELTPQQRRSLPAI
# Method: SPE-MS AspH inhibition assay (LOPAC screen at fixed 20 μM and IC50 dose-response), hydroxylation of cyclic peptide hFX-CP101–119
# Type: biochemical
Counter-ions that a name gives are not always drawn.

Compound	Plate 3 (% conversion) (%)
CC(N)Cc1c[nH]c2ccc(OCc3cccs3)cc12 (stereo not drawn)	36.52
CCCCCCCC/C=C\CCCCCCCC(=O)O	10.92
O=C(O)CCC(=O)O.c1ccc(C2(c3ccccc3)CC2C2=NCCN2)cc1 (stereo not drawn) [Cibenzoline succinate]	24.00
CNCCC(Oc1ccccc1OC)c1ccccc1 (stereo not drawn) [Nisoxetine hydrochloride]	39.53
CC(N)Cc1c[nH]c2ccc(O)cc12.O=C(O)/C=C\C(=O)O (stereo not drawn) [alpha-Methyl-5-hydroxytryptamine maleate]	39.06
Nc1nc2c(c(=O)[nH]1)C[C@@H](CCc1ccc(C(=O)N[C@@H](CCC(=O)O)C(=O)O)cc1)CN2.O [Lometrexol hydrate]	27.08
Cc1ncc(CNC(=O)N(CCCl)N=O)c(N)n1 [Nimustine hydrochloride]	38.40
C[C@](N)(Cc1ccc(O)cc1)C(=O)O	32.12
N=C(N)SCCc1cnc[nH]1 [Imetit dihydrobromide]	29.48
